These measurements were taken from patent US20090099029.

Target: T1, Bovine, dephosphorylated, Myelin Basic Protein (MBP), P02687
T1 chain: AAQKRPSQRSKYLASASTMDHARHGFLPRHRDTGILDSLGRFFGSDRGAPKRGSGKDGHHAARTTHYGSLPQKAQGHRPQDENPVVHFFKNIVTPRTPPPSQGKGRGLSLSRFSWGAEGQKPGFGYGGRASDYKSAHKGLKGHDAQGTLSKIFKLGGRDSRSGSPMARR

protein	MBP Kinase Activity
FER (protein) KSGVVLLNPIPKDKKWILSHEDVILGELLGKGNFGEVYKGTLKDKTSVAVKTCKEDLPQELKIKFLQEAKILKQYDHPNIVKLIGVCTQRQPVYIIMELVSGGDFLTFLRRKKDELKLKQLVKFSLDAAAGMLYLESKNCIHRDLAARNCLVGENNVLKISDFGMSRQEDGGVYSSSGLKQIPIKWTAPEALNYGRYSSESDVWSFGILLWETFSLGVCPYPGMTNQQAREQVERGYRMSAPQHCPEDISKIMMKCWDYKPENRPKFSELQKELTIIKRKLT	Negative
MAPK13(p38delta) (protein) MSLIRKKGFYKQDVNKTAWELPKTYVSPTHVGSGAYGSVCSAIDKRSGEKVAIKKLSRPFQSEIFAKRAYRELLLLKHMQHENVIGLLDVFTPASSLRNFYDFYLVMPFMQTDLQKIMGMEFSEEKIQYLVYQMLKGLKYIHSAGVVHRDLKPGNLAVNEDCELKILDFGLARHADAEMTGYVVTRWYRAPEVILSWMHYNQTVDIWSVGCIMAEMLTGKTLFKGKDYLDQLTQILKVTGVPGTEFVQKLNDKAAKSYIQSLPQTPRKDFTQLFPRASPQAADLLEKMLELDVDKRLTAAQALTHPFFEPFRDPEEETEAQQPFDDSLEHEKLTVDEWKQHIYKEIVNFSPIARKDSRRRSGMKL	Weak
CSNK2A2 (protein) MPGPAAGSRARVYAEVNSLRSREYWDYEAHVPSWGNQDDYQLVRKLGRGKYSEVFEAINITNNERVVVKILKPVKKKKIKREVKILENLRGGTNIIKLIDTVKDPVSKTPALVFEYINNTDFKQLYQILTDFDIRFYMYELLKALDYCHSKGIMHRDVKPHNVMIDHQQKKLRLIDWGLAEFYHPAQEYNVRVASRYFKGPELLVDYQMYDYSLDMWSLGCMLASMIFRREPFFHGQDNYDQLVRIAKVLGTEELYGYLKKYHIDLDPHFNDILGQHSRKRWENFIHSENRHLVSPEALDLLDKLLRYDHQQRLTAKEAMEHPYFYPVVKEQSQPCADNAVLSSGLTAAR	Negative
